test system: OVCAR-4; assay: Cytotoxicity against human OVCAR4 cells assessed as growth inhibition at 10 uM after 24 hrs by SRB assay; format: functional; conditions: OVCAR-4, 24 h, read-out: GI
measured.quantity: inhibition of growth at 10 µM (%)
Field format: number, assumed %, no unit text.

Example entries begin here.
COc1nc(OC)nc(-c2cc(C(=O)c3cc(OC)c(OC)c(OC)c3)n3c(-c4ccccc4)cccc23)n1 ... 18
COc1nc(OC)nc(-c2cc(C(=O)c3ccc(Br)cc3)n3c(C)cccc23)n1 ... 18
COc1nc(OC)nc(-c2cc(C(=O)c3ccc(Br)cc3)n3ccccc23)n1 ... 88
COc1nc(OC)nc(-c2cc(C(=O)c3ccc(Br)cc3)n3ccc(C)cc23)n1 ... 95
COc1nc(OC)nc(-c2cc(C(=O)c3cc(OC)c(OC)c(OC)c3)n3ccc(C)cc23)n1 ... 21

Name the reported inhibition of growth at 10 µM value associated with the compound `COc1nc(OC)nc(-c2cc(C(=O)c3ccc(Br)cc3)n3ccc4ccccc4c23)n1`
33

Name the reported inhibition of growth at 10 µM value associated with the compound `COc1nc(OC)nc(-c2cc(C(=O)c3ccc(Br)cc3)n3c2ccc2ccccc23)n1`
30

###

test system: UACC-257; assay: Cytotoxicity against human UACC257 cells assessed as growth inhibition at 10 uM after 24 hrs by SRB assay; format: functional; conditions: UACC-257, 24 h, read-out: GI
Outcome: fulfilled for inhibition of growth at 10 µM of at least 30%; not fulfilled for anything lower.

# example entries with known answers
COc1nc(OC)nc(-c2cc(C(=O)c3ccc(Br)cc3)n3ccc(C)cc23)n1 ... fulfilled
COc1nc(OC)nc(-c2cc(C(=O)c3ccc(Br)cc3)n3ccccc23)n1 ... fulfilled

Is reported inhibition of growth at 10 µM greater than or equal to 30% here: `COc1nc(OC)nc(-c2cc(C(=O)c3ccc(Br)cc3)n3ccc4ccccc4c23)n1`
fulfilled

Is reported inhibition of growth at 10 µM greater than or equal to 30% here: `COc1nc(OC)nc(-c2cc(C(=O)c3ccc(Br)cc3)n3ccc(C#N)cc23)n1`
not fulfilled

Is reported inhibition of growth at 10 µM greater than or equal to 30% here: `COc1nc(OC)nc(-c2cc(C(=O)c3cc(OC)c(OC)c(OC)c3)n3ccc(C)cc23)n1`
fulfilled

Is reported inhibition of growth at 10 µM greater than or equal to 30% here: `COc1nc(OC)nc(-c2cc(C(=O)c3ccc(C)cc3)n3ccc(C#N)cc23)n1`
not fulfilled

###

system: CAKI-1; experiment: Cytotoxicity against human CAKI-1 cells assessed as growth inhibition at 10 uM after 24 hrs by SRB assay; type: functional; details: CAKI-1, 24 h, read-out: GI
Parameter inhibition of growth at 10 µM: see the listing below.
Field format: number, assumed %, no unit text.

Name the reported inhibition of growth at 10 µM value associated with the molecule `COc1nc(OC)nc(-c2cc(C(=O)c3cc(OC)c(OC)c(OC)c3)n3ccc(C)cc23)n1`
25

Name the reported inhibition of growth at 10 µM value associated with the molecule `COc1ccc(C(=O)c2cc(-c3nc(OC)nc(OC)n3)c3ccccn23)cc1`
26

Name the reported inhibition of growth at 10 µM value associated with the molecule `COc1nc(OC)nc(-c2cc(C(=O)c3cc(OC)c(OC)c(OC)c3)n3c(C)cccc23)n1`
11
